# test-target: Fgr tyrosine kinase (Homo sapiens (Human), UniProt P09769)
# Sequence (P09769 whole entry): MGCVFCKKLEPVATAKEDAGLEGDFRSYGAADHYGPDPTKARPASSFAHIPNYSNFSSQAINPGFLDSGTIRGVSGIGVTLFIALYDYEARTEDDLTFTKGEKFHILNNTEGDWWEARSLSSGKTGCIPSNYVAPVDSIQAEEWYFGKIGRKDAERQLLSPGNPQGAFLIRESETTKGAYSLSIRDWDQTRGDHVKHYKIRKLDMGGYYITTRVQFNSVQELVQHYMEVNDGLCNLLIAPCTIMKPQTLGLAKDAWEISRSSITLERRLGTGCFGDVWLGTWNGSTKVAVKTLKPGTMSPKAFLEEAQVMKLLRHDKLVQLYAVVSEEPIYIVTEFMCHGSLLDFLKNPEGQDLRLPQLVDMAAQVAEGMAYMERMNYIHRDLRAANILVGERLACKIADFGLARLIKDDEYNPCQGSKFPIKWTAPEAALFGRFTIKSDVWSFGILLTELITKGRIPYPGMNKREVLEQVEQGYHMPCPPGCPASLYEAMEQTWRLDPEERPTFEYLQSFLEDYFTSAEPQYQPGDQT
# experimental-protocol: in vitro Fgr tyrosine kinase inhibition
# Assay type: biochemical
# test-settings: 1 uM compound; read-out: % inhibition against Fgr
observed-property: inhibition at 1 µM

Hi! What's the reported inhibition at 1 µM for "Oc1cccc(Nc2ncnc3cc(-c4cc(CN5CCCC5)co4)sc23)c1" on Fgr tyrosine kinase (Homo sapiens (Human), UniProt P09769)?
> 50%

Please tell me: inhibition at 1 µM of "CCN(CC)C(=O)Cc1ccc(-c2cc3ncnc(Nc4cccc(O)c4)c3s2)cc1" , system Fgr tyrosine kinase (Homo sapiens (Human), UniProt P09769)?
> 40%

# get_value(readout= inhibition at 1 µM, system= Fgr tyrosine kinase (Homo sapiens (Human), UniProt P09769)) for "CCN(CC)Cc1cccc(-c2cc3ncnc(Nc4cccc(O)c4)c3s2)c1.Cl"
> 80%

Under Fgr tyrosine kinase (Homo sapiens (Human), UniProt P09769): inhibition at 1 µM value of "Oc1cccc(Nc2ncnc3cc(Br)sc23)c1" ?
> 60%

Hello, I am looking for reported inhibition at 1 µM with Fgr tyrosine kinase (Homo sapiens (Human), UniProt P09769) for "Oc1cccc(Nc2ncnc3cc(-c4cc(CN5CCNCC5)cs4)sc23)c1" . Could you help?
> 50%

Which inhibition at 1 µM is reported with Fgr tyrosine kinase (Homo sapiens (Human), UniProt P09769) for this entry: "Oc1cccc(Nc2ccnc3cc(-c4cccc(CN5CCCC5)c4)sc23)c1" ?
> 70%

Quick check: inhibition at 1 µM on Fgr tyrosine kinase (Homo sapiens (Human), UniProt P09769), item "Oc1cccc(Nc2ncnc3cc(-c4ccc(N5CCOCC5)cc4)sc23)c1" ?
> 70%

# query: inhibition at 1 µM | item "CN1CCN(c2nc3ncnc(Nc4cccc(O)c4)c3s2)CC1" | system: Fgr tyrosine kinase (Homo sapiens (Human), UniProt P09769)
> 30%

Short answer please: inhibition at 1 µM, Fgr tyrosine kinase (Homo sapiens (Human), UniProt P09769), entry "CN1CCN(C(=O)c2ccc(-c3cc4ncnc(Nc5cccc(O)c5)c4s3)cc2)CC1"
> 50%

meta.source: patent US9062066B2
